- System: NA reuptake
- experiment.notes: Inhibition of NA (noradrenaline) uptake in rat hypothalamus synaptosomes
- Format: biochemical
- protocol.conditions: synaptosomes from hypothalamus of male rat brains
outcome.measure: NA reuptake % inhibition [10 μmol] (%)

• O=C(c1ccco1)N1CCn2cccc2C1c1ccc2c(c1)OCCO2 (centres unmarked) [Example 37] = 32
• Cc1ccccc1C(=O)N1CCn2cccc2C1c1cccs1 (centres unmarked) [Example 57] = 15
• COc1ccccc1C(=O)N1CCn2cccc2C1c1ccc(Cl)cc1 (centres unmarked) [Example 29] = 21
• O=C(c1ccc(F)cc1)N1CCn2cccc2C1c1ccccc1 (centres unmarked) [Example 20] = 33
• Cc1ccccc1C1c2cccn2CCN1C(=O)c1ccccc1F (centres unmarked) [Example 32] = 14
• CN(C)c1ccc(C2c3cccn3CCN2C(=O)c2ccc(F)cc2)cc1 (centres unmarked) [Example 54] = 40
• Cc1cccc(C2c3cccn3CCN2C(=O)c2cccc(F)c2)c1 (centres unmarked) [Example 16] = 49
• O=C(C1CCC1)N1CCn2cccc2C1c1ccc(F)cc1 (centres unmarked) [Example 28] = 21
• COc1ccccc1C(=O)N1CCn2cccc2C1c1cccc(Cl)c1 (centres unmarked) [Example 39] = 43
• COc1ccccc1C1c2cccn2CCN1C(=O)c1ccc2c(c1)OCO2 (centres unmarked) [Example 3] = 29
• O=C(c1cccs1)N1CCn2cccc2C1c1ccc(Cl)c(Cl)c1 (centres unmarked) [Example 65] = 49
• O=C(/C=C/c1ccc(F)cc1F)N1CCn2cccc2C1c1ccccc1 (centres unmarked) [Example 71] = 17
• O=C(c1ccco1)N1CCn2cccc2C1c1ccccc1 (centres unmarked) [Example 21] = 44
• O=C(/C=C/c1ccccc1)N1CCn2cccc2C1c1cccs1 (centres unmarked) [Example 72] = 23
• Cc1ccccc1C(=O)N1CCn2cccc2C1c1ccc2c(c1)OCCO2 (centres unmarked) [Example 34] = 22
• O=C(c1ccc2c(c1)OCO2)N1CCn2cccc2C1c1cccs1 (centres unmarked) [Example 56] = 35
• O=C(c1ccc2c(c1)OCO2)N1CCn2cccc2C1c1ccc(Cl)c(Cl)c1 (centres unmarked) [Example 61] = 68
• O=C(CCc1ccccc1)N1CCn2cccc2C1c1cccs1 (centres unmarked) [Example 76] = 46
• COCC(=O)N1CCn2cccc2C1c1ccccc1 (centres unmarked) [Example 25] = 12
• O=C(C1CCCC1)N1CCn2cccc2C1c1cccc(Cl)c1 (centres unmarked) [Example 42] = 22

###

- Test system: NA reuptake
- experiment.notes: Inhibition of NA (noradrenaline) uptake in rat hypothalamus synaptosomes
- Assay type: biochemical
- protocol.conditions: synaptosomes from hypothalamus of male rat brains
Classes (NA reuptake % inhibition [10 μmol]): bottom end (below 20%), midrange (20% to below 40%), top end (40% or more)

- O=C(c1cccc(F)c1)N1CCn2cccc2C1c1cccc(Cl)c1 (stereo not drawn) [Example 43]: top end
- O=C(CCCCc1ccccc1)N1CCn2cccc2C1c1cccs1 (stereo not drawn) [Example 77]: bottom end
- O=C(c1ccc(F)cc1)N1CCn2cccc2C1c1cccc(Cl)c1 (stereo not drawn) [Example 46]: top end
- CN(C)c1ccc(C2c3cccn3CCN2C(=O)C2CC2)cc1 (stereo not drawn) [Example 52]: bottom end
- O=C(c1ccccc1)N1CCn2cccc2C1c1cccs1 (stereo not drawn) [Example 82]: midrange
- CN(C)c1ccc(C2c3cccn3CCN2C(=O)c2ccccc2F)cc1 (stereo not drawn) [Example 51]: bottom end
- O=C(c1ccccc1F)N1CCn2cccc2C1c1ccccc1F (stereo not drawn) [Example 47]: bottom end
- Cc1cccc(C2c3cccn3CCN2C(=O)C2CCCC2)c1 (stereo not drawn) [Example 17]: midrange
- O=C(c1cccc(F)c1)N1CCn2cccc2C1c1cccs1 (stereo not drawn) [Example 58]: top end
- Cc1ccccc1C(=O)N1CCn2cccc2C1c1ccc(F)cc1 (stereo not drawn) [Example 75]: bottom end
- Cc1cccc(C2c3cccn3CCN2C(=O)c2cccs2)c1 (stereo not drawn) [Example 14]: midrange
- O=C(c1cccc(F)c1)N1CCn2cccc2C1c1ccccc1F (stereo not drawn) [Example 7]: midrange
- CC(C)CC(=O)N1CCn2cccc2C1c1ccc(Cl)c(Cl)c1 (stereo not drawn) [Example 64]: midrange
- Cc1ccc(C2c3cccn3CCN2C(=O)c2ccccc2F)cc1 (stereo not drawn) [Example 69]: bottom end
- COc1ccccc1C1c2cccn2CCN1C(=O)c1ccccc1F (stereo not drawn) [Example 49]: bottom end
- Cc1ccccc1C(=O)N1CCn2cccc2C1c1cccc(Cl)c1 (stereo not drawn) [Example 41]: midrange
- O=C(c1ccc(F)cc1)N1CCn2cccc2C1c1ccc2c(c1)OCCO2 (stereo not drawn) [Example 38]: top end
- Cc1ccsc1C(=O)N1CCn2cccc2C1c1ccccc1 (stereo not drawn) [Example 70]: bottom end
- O=C(c1cccs1)N1CCn2cccc2C1c1ccccc1 (stereo not drawn) [Example 22]: midrange
- Cc1ccccc1C(=O)N1CCn2cccc2C1c1ccccc1F (stereo not drawn) [Example 8]: bottom end
- O=C(c1cccs1)N1CCn2cccc2C1c1cccc(Cl)c1 (stereo not drawn) [Example 45]: top end
- CC(C)C(=O)N1CCn2cccc2C1c1ccc(Cl)c(Cl)c1 (stereo not drawn) [Example 67]: top end
- O=C(C1CC1)N1CCn2cccc2C1c1cccs1 (stereo not drawn) [Example 59]: bottom end
- O=C(c1ccco1)N1CCn2cccc2C1c1ccc(Cl)c(Cl)c1 (stereo not drawn) [Example 68]: top end
- Cc1ccccc1C1c2cccn2CCN1C(=O)c1ccc2c(c1)OCO2 (stereo not drawn) [Example 12]: midrange
- CN(C)c1ccc(C2c3cccn3CCN2C(=O)c2cccs2)cc1 (stereo not drawn) [Example 53]: midrange
- O=C(c1ccccc1F)N1CCn2cccc2C1c1ccc2c(c1)OCCO2 (stereo not drawn) [Example 35]: top end
- O=C(C1CCC1)N1CCn2cccc2C1c1ccc(Cl)c(Cl)c1 (stereo not drawn) [Example 66]: midrange
- O=C(C1CCCC1)N1CCn2cccc2C1c1ccccc1 (stereo not drawn) [Example 24]: top end

###

- tested.on: Serotonin reuptake (Rattus norvegicus, UniProt P31652)
- Construct: synaptosomes are freshly isolated from areas of the rat brain; from tissue; host or cells: rat brain synaptosomes (P2 fraction)
- Sequence (P31652 whole entry): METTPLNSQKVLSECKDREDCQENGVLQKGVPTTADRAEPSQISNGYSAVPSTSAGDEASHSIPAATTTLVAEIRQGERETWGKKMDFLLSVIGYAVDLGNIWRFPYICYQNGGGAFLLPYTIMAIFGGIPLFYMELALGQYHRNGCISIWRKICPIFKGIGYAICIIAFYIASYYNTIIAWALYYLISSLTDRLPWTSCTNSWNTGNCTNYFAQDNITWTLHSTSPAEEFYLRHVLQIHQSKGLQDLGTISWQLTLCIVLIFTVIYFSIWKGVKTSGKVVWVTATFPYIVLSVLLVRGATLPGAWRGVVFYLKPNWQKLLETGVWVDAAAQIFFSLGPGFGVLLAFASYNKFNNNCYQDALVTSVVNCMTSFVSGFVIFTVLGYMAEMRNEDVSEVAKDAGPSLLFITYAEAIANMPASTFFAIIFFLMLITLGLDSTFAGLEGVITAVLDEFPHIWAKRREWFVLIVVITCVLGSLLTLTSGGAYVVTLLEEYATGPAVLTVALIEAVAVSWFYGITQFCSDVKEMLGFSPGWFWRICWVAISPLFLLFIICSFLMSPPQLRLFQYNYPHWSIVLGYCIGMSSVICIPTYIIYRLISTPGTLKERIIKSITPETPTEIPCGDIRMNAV
- experiment.notes: Inhibition of 5HT (serotonin) uptake in rat brain synaptosomes
- Format: biochemical
- protocol.conditions: 10 μmol; synaptosomes from rat brain
Listed here: items and their measured inhibition at 10 µM.
outcome.measure: inhibition at 10 µM (%)

- CCC(OC)C(=O)N1CCn2cccc2C1c1cccs1 (centres unmarked): 28
- Cc1ccccc1C(=O)N1CCn2cccc2C1c1ccccc1 (centres unmarked): 32
- CC(=O)N1CCn2cccc2C1c1cccs1 (centres unmarked): 16
- O=C(c1cccc(F)c1)N1CCn2cccc2C1c1cccs1 (centres unmarked): 60
- O=C(/C=C/c1ccccc1)N1CCn2cccc2C1c1cccs1 (centres unmarked): 28
- COCC(=O)N1CCn2cccc2C1c1ccccc1 (centres unmarked): 33
- CN(C)c1ccc(C2c3cccn3CCN2C(=O)c2cccs2)cc1 (centres unmarked): 31
- CC(C)CC(=O)N1CCn2cccc2C1c1ccc(Cl)c(Cl)c1 (centres unmarked): 48

###

- tested.on: Serotonin reuptake (Rattus norvegicus, UniProt P31652)
- Construct: synaptosomes are freshly isolated from areas of the rat brain; from tissue; host or cells: rat brain synaptosomes (P2 fraction)
- experiment.notes: Inhibition of 5HT (serotonin) uptake in rat brain synaptosomes
- Assay type: biochemical
- protocol.conditions: 10 μmol; synaptosomes from rat brain
Is inhibition at 10 µM at least 40%? Then rule met. If not, rule not met.

- Cc1ccccc1C(=O)N1CCn2cccc2C1c1cccc(Cl)c1 (stereo not drawn) [Example 41]: rule not met
- Cc1cccc(C2c3cccn3CCN2C(=O)C2CCCC2)c1 (stereo not drawn) [Example 17]: rule not met
- CN(C)c1ccc(C2c3cccn3CCN2C(=O)C2CC2)cc1 (stereo not drawn) [Example 52]: rule not met
- O=C(/C=C/c1ccc(F)cc1F)N1CCn2cccc2C1c1ccccc1 (stereo not drawn) [Example 71]: rule not met
- O=C(c1cccc(F)c1)N1CCn2cccc2C1c1ccccc1F (stereo not drawn) [Example 7]: rule met
- O=C(c1ccccc1F)N1CCn2cccc2C1c1cccc(Cl)c1 (stereo not drawn) [Example 44]: rule met
- O=C(C1CCCC1)N1CCn2cccc2C1c1cccc(Cl)c1 (stereo not drawn) [Example 42]: rule not met
- O=C(C1CCCC1)N1CCn2cccc2C1c1ccccc1 (stereo not drawn) [Example 24]: rule not met
- Cc1ccsc1C(=O)N1CCn2cccc2C1c1ccccc1 (stereo not drawn) [Example 70]: rule not met
- CCCCCC(=O)N1CCn2cccc2C1c1cccs1 (stereo not drawn) [Example 78]: rule met
- O=C(c1ccc(F)cc1)N1CCn2cccc2C1c1cccc(Cl)c1 (stereo not drawn) [Example 46]: rule met
- CN(C)c1ccc(C2c3cccn3CCN2C(=O)c2ccccc2F)cc1 (stereo not drawn) [Example 51]: rule met
- O=C(C1CCCC1)N1CCn2cccc2C1c1ccc(Cl)c(Cl)c1 (stereo not drawn) [Example 62]: rule met
- Cc1ccccc1C1c2cccn2CCN1C(=O)c1ccc2c(c1)OCO2 (stereo not drawn) [Example 12]: rule not met

###

inhibition at 10 µM: recorded values
- tested.on: Serotonin reuptake (Rattus norvegicus)
- Construct: synaptosomes are freshly isolated from areas of the rat brain; from tissue; host or cells: rat brain synaptosomes (P2 fraction)
- experiment.notes: Inhibition of 5HT (serotonin) uptake in rat brain synaptosomes
- Assay type: biochemical
- protocol.conditions: 10 μmol; synaptosomes from rat brain
outcome.measure: inhibition at 10 µM (%)

• O=C(c1ccccc1F)N1CCn2cccc2C1c1ccc2c(c1)OCCO2 (centres unmarked) = 66
• Cc1cccc(C2c3cccn3CCN2C(=O)c2ccc3c(c2)OCO3)c1 (centres unmarked) = 55
• O=C(c1ccc2c(c1)OCO2)N1CCn2cccc2C1c1cccs1 (centres unmarked) = 56
• CCC(C)C(=O)N1CCn2cccc2C1c1ccccc1OC (centres unmarked) = 27
• O=C(c1ccc(F)cc1)N1CCn2cccc2C1c1ccc(F)cc1F (centres unmarked) = 35

All values here come from patent US7879858B2.
